- target.desc: T1, IFN-αWA (human, UniProt P05015 24-189)
- T1 construct: Recombinant, HEK293; also called IFN-α16
- protocol.notes: ProteOn SPR, cell supernatant;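 note: each binding measurement used just a single antigen concentration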
Catalogue of pKd readings, one per entry.
Keep it numeric: pKd is minus log10 of the concentration in mol/L.

binder: IFWM3375 (antibody, IgG1, V domains shown, mAb; IgG1/kappa said of the parent and of selected mAbs; also called IFWB3110) VH: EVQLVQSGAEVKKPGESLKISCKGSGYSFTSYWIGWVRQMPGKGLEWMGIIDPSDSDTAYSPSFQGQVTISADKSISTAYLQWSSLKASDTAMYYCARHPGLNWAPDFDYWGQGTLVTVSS VL: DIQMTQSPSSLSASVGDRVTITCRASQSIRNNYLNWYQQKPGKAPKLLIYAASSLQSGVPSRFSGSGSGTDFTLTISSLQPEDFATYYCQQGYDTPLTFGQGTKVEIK
pKd: 10.51

Please fill in: pKd reported for IFWM3399 (antibody, IgG1, V domains shown, mAb; IgG1/kappa said of the parent and of selected mAbs; also called IFWB3134) VH: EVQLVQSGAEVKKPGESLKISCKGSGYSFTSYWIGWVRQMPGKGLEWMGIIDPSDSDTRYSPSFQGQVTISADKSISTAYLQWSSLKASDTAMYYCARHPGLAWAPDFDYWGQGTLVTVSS VL: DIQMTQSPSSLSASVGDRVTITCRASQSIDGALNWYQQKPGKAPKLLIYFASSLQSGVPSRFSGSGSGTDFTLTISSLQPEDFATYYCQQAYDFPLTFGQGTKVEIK = 10.43

The binder listed as IFWM3419 (antibody, IgG1, V domains shown, mAb; IgG1/kappa said of the parent and of selected mAbs; also called IFWB3154) VH: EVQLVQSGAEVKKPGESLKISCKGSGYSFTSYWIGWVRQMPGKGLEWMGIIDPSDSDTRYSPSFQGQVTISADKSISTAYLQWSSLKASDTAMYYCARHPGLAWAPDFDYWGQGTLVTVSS VL: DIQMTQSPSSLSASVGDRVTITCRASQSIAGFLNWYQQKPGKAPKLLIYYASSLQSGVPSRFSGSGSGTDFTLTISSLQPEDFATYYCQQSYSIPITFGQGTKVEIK has a reported pKd of 9.71

Please fill in: pKd reported for IFWM3383 (antibody, IgG1, V domains shown, mAb; IgG1/kappa said of the parent and of selected mAbs; also called IFWB3118) VH: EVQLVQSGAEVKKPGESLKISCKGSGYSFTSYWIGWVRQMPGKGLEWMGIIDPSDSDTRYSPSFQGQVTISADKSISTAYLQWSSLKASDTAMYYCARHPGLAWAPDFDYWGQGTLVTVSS VL: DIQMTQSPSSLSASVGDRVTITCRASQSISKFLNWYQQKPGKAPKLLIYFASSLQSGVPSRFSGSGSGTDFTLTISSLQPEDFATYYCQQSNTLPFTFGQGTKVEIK = 10.19
